tested.system: HSP27 (Homo sapiens, UniProt P04792)
Sequence (P04792 whole entry): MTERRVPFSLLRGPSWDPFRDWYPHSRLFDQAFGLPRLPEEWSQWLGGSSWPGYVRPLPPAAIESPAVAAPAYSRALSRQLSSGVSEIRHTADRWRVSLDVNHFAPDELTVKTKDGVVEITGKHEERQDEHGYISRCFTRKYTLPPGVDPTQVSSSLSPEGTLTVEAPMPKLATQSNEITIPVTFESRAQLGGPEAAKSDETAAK
experiment: Capillary electrophoresis of heat-denatured citrate synthase protein precipitates
Type: biochemical
condition.set: 10 μmol/L vs 750 μmol/L BVDU, 43° C. for 70 minutes (Table 3)
We use 60 x as the dividing line for Efficacy compared with BVDU: on or above the line is Fulfilled, below is Not fulfilled.

molecule | group.label
Cc1cn([C@H]2C[C@H](n3cc(C(C)(C)C)nn3)[C@@H](CO)O2)c(=O)[nH]c1=O | Not fulfilled
Cc1cn(CCCCNC(=O)Cc2ccc(-c3ccccc3)cc2)c(=O)[nH]c1=O | Not fulfilled
COc1ccc(-c2cn([C@H]3CC(n4cc(C)c(=O)[nH]c4=O)O[C@@H]3CO)nn2)cc1 (stereo partly shown) | Not fulfilled
O=C(NC/C=C\Cn1ccc(=O)[nH]c1=O)C1c2ccccc2OC2C=CC=CC21 (stereo not shown) | Fulfilled
Cc1cn(CCCCNC(=O)C2c3ccccc3Oc3ccccc32)c(=O)[nH]c1=O | Not fulfilled
Cc1cn([C@H]2C[C@H](n3cc(-c4ccc(Cl)c(Cl)c4)nn3)[C@@H](CO)O2)c(=O)[nH]c1=O | Fulfilled
Cc1cn(CCCCNC(=O)C2c3ccccc3-c3ccccc32)c(=O)[nH]c1=O | Not fulfilled
Cc1cn(C2C[C@H](n3cc(-c4ccc(Br)cc4)nn3)[C@@H](CO)O2)c(=O)[nH]c1=O (stereo partly shown) | Not fulfilled
Cc1cn([C@H]2C[C@H](n3cc(-c4ccc(Cl)cc4)nn3)[C@@H](CO)O2)c(=O)[nH]c1=O | Not fulfilled
Cc1cn([C@H]2C[C@H](n3cc(CCc4ccccc4)nn3)[C@@H](CO)O2)c(=O)[nH]c1=O | Not fulfilled
O=C(Cc1ccc2ccccc2c1)NC/C=C\Cn1ccc(=O)[nH]c1=O | Fulfilled
CCCCc1cn([C@H]2C[C@H](n3cc(C)c(=O)[nH]c3=O)O[C@@H]2CO)nn1 | Not fulfilled
O=C(Cc1ccc(-c2ccccc2)cc1)NC/C=C\Cn1ccc(=O)[nH]c1=O | Fulfilled
Cc1cn(C/C=C\CNC(=O)C2c3ccccc3-c3ccccc32)c(=O)[nH]c1=O | Fulfilled
Cc1cn(CCCCNC(=O)Cc2ccc3ccccc3c2)c(=O)[nH]c1=O | Not fulfilled

====

Catalogue of molecules with associated Rel. quantity of protein prec. CS
tested.system: HSP27 (Homo sapiens, UniProt P04792)
experiment: Capillary electrophoresis of heat-denatured citrate synthase protein precipitates
Type: biochemical
condition.set: 10 μmol/L, 43° C. for 70 minutes; relative to 750 μmol/L BVDU = 1 (Table 3)

smiles.entry | Rel. quantity of protein prec. CS
CCCCc1cn([C@H]2C[C@H](n3cc(C)c(=O)[nH]c3=O)O[C@@H]2CO)nn1 | 0.76
Cc1cn(C/C=C\CNC(=O)C(c2ccccc2)c2ccccc2)c(=O)[nH]c1=O | 0.82
Cc1cn([C@H]2C[C@H](n3cc(-c4ccccc4)nn3)[C@@H](CO)O2)c(=O)[nH]c1=O | 0.79
Cc1cn(CCCCNC(=O)C(c2ccccc2)c2ccccc2)c(=O)[nH]c1=O | 0.79
Cc1cn(C/C=C\CNC(=O)C2c3ccccc3-c3ccccc32)c(=O)[nH]c1=O | 0.86
Cc1cn(C/C=C\CNC(=O)Cc2cccc3ccccc23)c(=O)[nH]c1=O | 0.81
Cc1cn(CCCCNC(=O)C2c3ccccc3-c3ccccc32)c(=O)[nH]c1=O | 0.58
Cc1cn([C@H]2C[C@H](n3cc(-c4ccc(F)cc4)nn3)[C@@H](CO)O2)c(=O)[nH]c1=O | 0.66
Cc1cn(CCCCNC(=O)Cc2ccc3ccccc3c2)c(=O)[nH]c1=O | 0.75
Cc1cn(CCCCNC(=O)C2c3ccccc3Oc3ccccc32)c(=O)[nH]c1=O | 0.68

====

tested.system: UniProt:P04792
experiment: Capillary electrophoresis of heat-denatured citrate synthase protein precipitates
Assay type: biochemical
condition.set: 10 μmol/L vs 750 μmol/L BVDU, 43° C. for 70 minutes (Table 3)
Catalogue of compounds with associated Efficacy compared with BVDU

smiles.entry | tested.system | Efficacy compared with BVDU
Cc1cn(C/C=C\CNC(=O)Cc2cccc3ccccc23)c(=O)[nH]c1=O | UniProt:P04792 | 60.44 x
Cc1cn(CCCCNC(=O)C(c2ccccc2)c2ccccc2)c(=O)[nH]c1=O | UniProt:P04792 | 58.97 x
Cc1cn(C/C=C\CNC(=O)C(c2ccccc2)c2ccccc2)c(=O)[nH]c1=O | UniProt:P04792 | 61.19 x
Cc1cn(C/C=C\CNC(=O)c2cccc3ccccc23)c(=O)[nH]c1=O | UniProt:P04792 | 58.73 x
